# Test system: IFNγ-induced STAT1 phosphorylation (pSTAT1) in B16F10 cells
# assay_text: B16F10 Phospho-STAT1 HTRF proximal pharmacodynamic (PD) assay
# Format: cell-based, murine
# run_conditions: B16-F10; Table 2; 3 hours compound, then mouse IFNγ 100 nM 10 minutes; top dose 50 μM; read-out: B16F10 IFNγ Induced pSTAT1 EC50
What pEC50 was measured for each of the following?
On this scale, pEC50 is minus log10 of a concentration expressed in M (mol/L).

State, for IFNγ-induced STAT1 phosphorylation (pSTAT1) in B16F10 cells, measured pEC50 of the compound listed here: `O=C1CN(c2c(O)cc3c(c2F)C[C@H](NCCC2CCOCC2)CS3)S(=O)(=O)N1` 5.22

State, for IFNγ-induced STAT1 phosphorylation (pSTAT1) in B16F10 cells, measured pEC50 of the compound listed here: `CC(C)CN[C@@H]1CSc2cc(O)c(N3CC(=O)NS3(=O)=O)c(F)c2C1` 5.69

State, for IFNγ-induced STAT1 phosphorylation (pSTAT1) in B16F10 cells, measured pEC50 of the compound listed here: O=C1CN(c2c(O)cc3c(c2F)C[C@H](NCC2CC2(F)F)CS3)S(=O)(=O)N1 (stereo partly shown) 4.59

State, for IFNγ-induced STAT1 phosphorylation (pSTAT1) in B16F10 cells, measured pEC50 of the compound listed here: `CCC(C)(C)CCN[C@@H]1CSc2cc(O)c(N3CC(=O)NS3(=O)=O)c(F)c2C1` 5.16

State, for IFNγ-induced STAT1 phosphorylation (pSTAT1) in B16F10 cells, measured pEC50 of the compound listed here: `CC1=C(CCN[C@@H]2CSc3cc(O)c(N4CC(=O)NS4(=O)=O)c(F)c3C2)C(C)(C)CCC1` 5.53

State, for IFNγ-induced STAT1 phosphorylation (pSTAT1) in B16F10 cells, measured pEC50 of the compound listed here: `CCCCN[C@@H]1CSc2cc(O)c(N3CC(=O)NS3(=O)=O)c(F)c2C1` 5.92

State, for IFNγ-induced STAT1 phosphorylation (pSTAT1) in B16F10 cells, measured pEC50 of the compound listed here: `O=C1CN(c2c(O)cc3c(c2F)C[C@H](NCC2CCOCC2)CS3)S(=O)(=O)N1` 5.16

State, for IFNγ-induced STAT1 phosphorylation (pSTAT1) in B16F10 cells, measured pEC50 of the compound listed here: `O=C1CN(c2c(O)cc3c(c2F)C[C@H](NCCC2CCCCC2)CS3)S(=O)(=O)N1` 5.37

State, for IFNγ-induced STAT1 phosphorylation (pSTAT1) in B16F10 cells, measured pEC50 of the compound listed here: `CC1(CN[C@@H]2CSc3cc(O)c(N4CC(=O)NS4(=O)=O)c(F)c3C2)COC1` 5.05

State, for IFNγ-induced STAT1 phosphorylation (pSTAT1) in B16F10 cells, measured pEC50 of the compound listed here: `O=C1CN(c2c(O)cc3c(c2F)C[C@H](NCCCc2ccccc2)CS3)S(=O)(=O)N1` 4.56

State, for IFNγ-induced STAT1 phosphorylation (pSTAT1) in B16F10 cells, measured pEC50 of the compound listed here: `O=C1CN(c2c(O)cc3c(c2F)C[C@H](NCc2ccccc2)CS3)S(=O)(=O)N1` 5.09

State, for IFNγ-induced STAT1 phosphorylation (pSTAT1) in B16F10 cells, measured pEC50 of the compound listed here: `O=C1CN(c2c(O)cc3c(c2F)C[C@H](NCCCC(F)F)CS3)S(=O)(=O)N1` 6.79

State, for IFNγ-induced STAT1 phosphorylation (pSTAT1) in B16F10 cells, measured pEC50 of the compound listed here: `CC(C)=CCN[C@@H]1CSc2cc(O)c(N3CC(=O)NS3(=O)=O)c(F)c2C1` 5.19

State, for IFNγ-induced STAT1 phosphorylation (pSTAT1) in B16F10 cells, measured pEC50 of the compound listed here: O=C1CN(c2c(O)cc3c(c2F)C[C@H](NCC2C4CCCC42)CS3)S(=O)(=O)N1 (mixture of isomers) 5.83

State, for IFNγ-induced STAT1 phosphorylation (pSTAT1) in B16F10 cells, measured pEC50 of the compound listed here: `CC(C)(C)OC(=O)N1CCC(CN[C@@H]2CSc3cc(O)c(N4CC(=O)NS4(=O)=O)c(F)c3C2)CC1` 5.16
